Numbers sourced from patent US12172959B2.

I'd appreciate it if you could supply CC50 values for the items below.
Tested on: Vero cells
Details: African green monkey
Numeric answer only, unit µM assumed.

Form: compound = COc1cc(NC(C(=O)c2c[nH]c3cc(F)ccc23)c2ccc(Cl)cc2OC)cc(S(C)(=O)=O)c1 (single isomer, unassigned) [Compound 1B] ; CC50 = 6.5

Summary for this compound, COc1cc(NC(C(=O)c2c[nH]c3ccc(OC(F)(F)F)cc23)c2ccc(Cl)cc2OC)cc(S(C)(=O)=O)c1 (single isomer, unassigned) [Compound 9A] : CC50 is 2.9

CC50 reading for COc1cc(NC(C(=O)c2c[nH]c3c(C)c(F)ccc23)c2ccc(Cl)cc2OC)cc(S(C)(=O)=O)c1 (single isomer, unassigned) [Compound 2B] : 7.4

# CC50 of COc1cc(NC(C(=O)c2c[nH]c3c(C)c(OC)ccc23)c2ccc(Cl)cc2OC)cc(S(C)(=O)=O)c1 (single isomer, unassigned) [Compound 6B] = 11

CC50 measured on COc1cc(NC(C(=O)c2c[nH]c3ccc(C(F)(F)F)cc23)c2ccc(Cl)cc2OC)cc(S(C)(=O)=O)c1 (single isomer, unassigned) [Compound 8B] = 3.4
